- Test summary: Inhibition of almond beta-glucosidase
- Design: species or system Prunus dulcis
pIC50: −log10 of the molar value.
The entries below come with measured pIC50 values attached.

smiles_code=COc1ccc([C@H]2N[C@H](CO)[C@@H](O)[C@@H]2O)c(OC)c1 quantity_measured=pIC50 assay_result=4.02
smiles_code=COc1ccc(OC)c([C@H]2N[C@H](CO)[C@@H](O)[C@@H]2O)c1 quantity_measured=pIC50 assay_result=3.77
smiles_code=COc1ccc([C@@H]2N[C@@H](CO)[C@H](O)[C@H]2O)cc1O quantity_measured=pIC50 assay_result="< 3.70"
smiles_code=CCCCN1[C@H](CO)[C@@H](O)[C@H](O)[C@H]1c1ccc(OC)c(O)c1 quantity_measured=pIC50 assay_result="< 3.70"

-- ask // query pIC50 value for entry `OC[C@H]1N[C@H](c2ccc(O)cc2)[C@@H](O)[C@@H]1O`
-- reply < 3.70

-- ask Then what about the compound `COc1ccc([C@@H]2N[C@@H](CO)[C@H](O)[C@H]2O)cc1OC` ?
-- reply < 3.70

-- ask Then what about the compound `COc1ccc([C@@H]2[C@@H](O)[C@H](O)[C@@H](CO)N2C)cc1OC` ?
-- reply < 3.70

-- ask Then what about the compound `COc1ccc([C@@H]2[C@@H](O)[C@H](O)[C@@H](CO)N2C)cc1` ?
-- reply < 3.70

-- ask Then what about the compound `COc1ccc([C@H]2N[C@H](CO)[C@@H](O)[C@@H]2O)cc1` ?
-- reply 3.91
